Data provenance is ChEMBL document CHEMBL5390302.

# System under test: Protein mono-ADP-ribosyltransferase TIPARP (Homo sapiens)
# Sequence (Q7Z3E1 whole entry): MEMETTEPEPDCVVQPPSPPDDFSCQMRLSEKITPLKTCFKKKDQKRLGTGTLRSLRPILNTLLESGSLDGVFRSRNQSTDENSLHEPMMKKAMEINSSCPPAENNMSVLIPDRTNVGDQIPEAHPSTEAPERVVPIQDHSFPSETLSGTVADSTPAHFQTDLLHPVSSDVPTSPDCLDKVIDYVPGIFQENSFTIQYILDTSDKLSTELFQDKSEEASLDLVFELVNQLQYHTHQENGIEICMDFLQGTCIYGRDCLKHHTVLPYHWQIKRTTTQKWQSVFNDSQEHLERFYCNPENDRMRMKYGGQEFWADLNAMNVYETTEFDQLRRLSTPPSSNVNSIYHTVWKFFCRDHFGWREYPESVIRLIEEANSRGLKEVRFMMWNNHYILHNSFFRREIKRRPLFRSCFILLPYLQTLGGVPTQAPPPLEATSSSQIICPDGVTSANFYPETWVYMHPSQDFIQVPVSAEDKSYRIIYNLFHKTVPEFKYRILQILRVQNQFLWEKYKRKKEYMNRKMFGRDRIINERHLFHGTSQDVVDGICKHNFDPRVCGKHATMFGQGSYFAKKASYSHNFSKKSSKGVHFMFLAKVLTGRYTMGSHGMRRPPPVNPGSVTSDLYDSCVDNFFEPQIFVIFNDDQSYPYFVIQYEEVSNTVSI
Measure: IC50
Answer format reminder: number followed by unit.

Form field IC50, entry "C[C@@H](CCCn1ccc2cc(-c3ncc(C(F)(F)F)c(N4CC(C#N)C4)n3)c(F)cc2c1=O)Nc1cn[nH]c(=O)c1C(F)(F)F" : 0.188 nM
